Items are presented alongside their recorded inhibition at 20 µM.
- assay_system: KRas Q61H mutant (Homo sapiens (Human), UniProt P01116, Q61H)
- Sequence (P01116-2 other isoform, or with tags, fused parts or gaps Q61H): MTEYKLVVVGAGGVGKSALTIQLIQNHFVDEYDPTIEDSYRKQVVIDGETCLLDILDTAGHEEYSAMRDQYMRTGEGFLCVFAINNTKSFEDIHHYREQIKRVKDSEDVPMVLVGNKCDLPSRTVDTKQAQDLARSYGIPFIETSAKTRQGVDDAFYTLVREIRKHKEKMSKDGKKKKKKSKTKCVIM
- assay: Ras GTP binding domain inhibition assay (labeled GTP)
- conditions: 20 μM compound; read-out: % Inhibition at 20 μM KRas Q61H
reported_metric: inhibition at 20 µM

[[record]]
molecule = "CN(CCc1cccc(C#N)c1)C(=O)c1csc2nc(-c3ccccn3)nc(N3CCOCC3)c12 [drawing 2788]"
reported_metric = "inhibition at 20 µM"
result = "51 to 75%"

[[record]]
molecule = "O=C(COCc1cccnc1)Nc1nc(-c2ccccn2)nc2sccc12 [drawing 2829]"
reported_metric = "inhibition at 20 µM"
result = "76 to 100%"

[[record]]
molecule = "COc1cccc(N2CCN(C(=O)c3csc4c(O)nc(-c5ccccn5)nc34)CC2)c1 [drawing 2713]"
reported_metric = "inhibition at 20 µM"
result = "51 to 75%"

[[record]]
molecule = "CN1CCN(c2nc(-c3ccccn3)nc3scc(C(=O)NCCc4cnc(O)nc4)c23)CC1 [drawing 2899]"
reported_metric = "inhibition at 20 µM"
result = "51 to 75%"

[[record]]
molecule = "COC(=O)c1csc2nc(-c3ccccn3)nc(N)c12 [drawing 2895]"
reported_metric = "inhibition at 20 µM"
result = "25 to 50%"

[[record]]
molecule = "O=C(c1csc2c(O)nc(-c3ccccn3)nc12)N1CCOC(c2nccs2)C1 (centres unmarked) [drawing 2734]"
reported_metric = "inhibition at 20 µM"
result = "51 to 75%"

[[record]]
molecule = "O=C(c1csc2c(O)nc(-c3ccccn3)nc12)N1CCNC(c2ccccc2Cl)C1 (centres unmarked) [drawing 2806]"
reported_metric = "inhibition at 20 µM"
result = "76 to 100%"

[[record]]
molecule = "Oc1nc(-c2ccccn2)nc2c(-c3ccsc3)csc12 [drawing 2875]"
reported_metric = "inhibition at 20 µM"
result = "25 to 50%"

[[record]]
molecule = "O=C(c1csc2c(O)nc(-c3ccccn3)nc12)N1CCOC(c2ccccc2)C1 (centres unmarked) [drawing 2766]"
reported_metric = "inhibition at 20 µM"
result = "51 to 75%"

[[record]]
molecule = "O=C(NCCc1ccnc(O)c1)c1csc2nc(-c3ccccn3)nc(N3CCOCC3)c12 [drawing 2783]"
reported_metric = "inhibition at 20 µM"
result = "1 to 25%"

[[record]]
molecule = "O=C(CCc1nn[nH]n1)Nc1nc(-c2ccccn2)nc2sccc12 [drawing 2890]"
reported_metric = "inhibition at 20 µM"
result = "51 to 75%"

[[record]]
molecule = "COc1ccnc(-c2nc(O)c3c(Cl)csc3n2)c1 [drawing 2800]"
reported_metric = "inhibition at 20 µM"
result = "76 to 100%"

[[record]]
molecule = "CC(C)(C(=O)Nc1nc(-c2ccccn2)nc2sccc12)c1ccc(C#N)cc1 [drawing 2752]"
reported_metric = "inhibition at 20 µM"
result = "1 to 25%"

[[record]]
molecule = "Cc1cnc(-c2ccccn2)nc1NC(=O)C(C)c1ccc(C#N)cc1 (centres unmarked) [drawing 2797]"
reported_metric = "inhibition at 20 µM"
result = "51 to 75%"


###

- assay_system: KRas G12D/Q61H double mutant (Homo sapiens (Human), UniProt P01116, G12D/Q61H)
- Sequence (P01116-2 other isoform, or with tags, fused parts or gaps G12D/Q61H): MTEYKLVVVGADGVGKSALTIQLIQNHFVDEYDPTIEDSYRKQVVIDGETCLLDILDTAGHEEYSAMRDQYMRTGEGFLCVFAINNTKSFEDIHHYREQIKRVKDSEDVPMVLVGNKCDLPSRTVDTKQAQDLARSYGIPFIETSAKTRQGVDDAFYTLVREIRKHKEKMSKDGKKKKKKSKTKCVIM
- assay: Ras GTP binding domain inhibition assay (labeled GTP)
- conditions: 20 μM compound; KRas G12D/Q61H double mutant; read-out: % Inhibition at 20 μM of K-Ras mutant and wild-type protein, KRas G12D Q61H
Items are presented alongside their recorded inhibition at 20 µM.
reported_metric: inhibition at 20 µM

[[record]]
compound = "CCOc1ccc(C2=NN(C(=O)CC)C(c3ccc(CC)cc3)C2)cc1 (stereo not shown)"
reported_metric = "inhibition at 20 µM"
result = "25 to 50%"

[[record]]
compound = "COCC(C)Nc1nc(-c2ccccn2)nc2sc(-c3ccncc3)c(-c3ccccc3)c12 (stereo not shown) [drawing 3541]"
reported_metric = "inhibition at 20 µM"
result = "51 to 75%"

[[record]]
compound = "FC(F)(F)C1CCCN(Cc2ccccc2CN2CCCC(C(F)(F)F)C2)C1 (stereo not shown)"
reported_metric = "inhibition at 20 µM"
result = "25 to 50%"

[[record]]
compound = "CC1CCCN(S(=O)(=O)c2ccc(NCc3ccc(C(=O)N(C)C(C)C)cc3)c([N+](=O)[O-])c2)C1 (stereo not shown)"
reported_metric = "inhibition at 20 µM"
result = "25 to 50%"

[[record]]
compound = "Cc1ccc(S(=O)(=O)N2CCN(C(=O)CNC(=O)c3ncccc3O)CC2)s1"
reported_metric = "inhibition at 20 µM"
result = "25 to 50%"

[[record]]
compound = "COC(=O)c1cc(Cn2nc(C(=O)OC)c(Br)c2C2CC2)c(C)s1"
reported_metric = "inhibition at 20 µM"
result = "25 to 50%"

[[record]]
compound = "COC(=O)c1ccc(CN2CC(NC(=O)OC(C)(C)C)CCC2C(F)(F)F)cc1 (stereo not shown)"
reported_metric = "inhibition at 20 µM"
result = "25 to 50%"

[[record]]
compound = "COc1ccc(CCN/C(=N/C(=O)Nc2ccccc2)Nc2nc(C)cc(C)n2)cc1OC"
reported_metric = "inhibition at 20 µM"
result = "25 to 50%"

[[record]]
compound = "CN(Cc1ccccc1N1CCOCC1)C(=O)c1ccc(OCc2ccccc2)cc1"
reported_metric = "inhibition at 20 µM"
result = "1 to 25%"

[[record]]
compound = "COc1cc(C(=O)NCC(c2cccs2)N(C)C)ccc1OCc1ccccc1Cl (stereo not shown)"
reported_metric = "inhibition at 20 µM"
result = "1 to 25%"

[[record]]
compound = "COc1ccc2c(c1)C(N(Cc1ccccc1)Cc1nc(CC(C)C)no1)CCO2 (stereo not shown)"
reported_metric = "inhibition at 20 µM"
result = "25 to 50%"

[[record]]
compound = "COc1ccc(C(C)=O)cc1CC(C(=O)c1ccc(C2CCCCC2)cc1)N(C)C (stereo not shown)"
reported_metric = "inhibition at 20 µM"
result = "25 to 50%"

[[record]]
compound = "O=C(c1csc2c(O)nc(-c3ccccn3)nc12)N1CCNC(c2ccc(Cl)cc2)C1 (stereo not shown) [drawing 3525]"
reported_metric = "inhibition at 20 µM"
result = "25 to 50%"

[[record]]
compound = "O=C(COC1CCCC1)Nc1nnc(-c2ccccn2)[nH]1"
reported_metric = "inhibition at 20 µM"
result = "51 to 75%"

[[record]]
compound = "COc1nc(-c2ccccn2)nc2c(C3CC3)csc12 [drawing 3489]"
reported_metric = "inhibition at 20 µM"
result = "1 to 25%"

[[record]]
compound = "CCOc1ccccc1CN(CCCn1ccnc1)C(=O)Nc1ccc(OC(F)F)c(Cl)c1"
reported_metric = "inhibition at 20 µM"
result = "25 to 50%"

[[record]]
compound = "O=C(NCC(F)(F)F)c1ccc(CN(Cc2cc(Cl)cc3c2OCCO3)C2CC2)cc1"
reported_metric = "inhibition at 20 µM"
result = "25 to 50%"

[[record]]
compound = "Oc1nc(-c2ccccn2)nc2c(C3CC3)csc12 [drawing 3518]"
reported_metric = "inhibition at 20 µM"
result = "25 to 50%"

[[record]]
compound = "c1ccc(Cc2nc(CN(CCn3cccn3)Cc3csc(Cc4ccccc4)n3)cs2)cc1"
reported_metric = "inhibition at 20 µM"
result = "1 to 25%"

[[record]]
compound = "Oc1nc(-c2ccccn2)nc2c(-c3cnc4ccccc4c3)csc12 [drawing 3462]"
reported_metric = "inhibition at 20 µM"
result = "25 to 50%"

[[record]]
compound = "C=CCn1c(C)cc(C(=O)COC(=O)c2ccccc2Oc2ccccc2)c1C"
reported_metric = "inhibition at 20 µM"
result = "51 to 75%"

[[record]]
compound = "Oc1nc(-c2ccccn2)nc2cc(-c3cccc(Br)c3)sc12 [drawing 3564]"
reported_metric = "inhibition at 20 µM"
result = "25 to 50%"

[[record]]
compound = "COc1ccc(N(C(=O)c2ccc(COc3ccccc3)o2)C(C)C2CC2)cc1 (stereo not shown)"
reported_metric = "inhibition at 20 µM"
result = "25 to 50%"

[[record]]
compound = "Clc1ccccc1SCCCSc1nnc(N2CCCC2)s1"
reported_metric = "inhibition at 20 µM"
result = "25 to 50%"

[[record]]
compound = "CC(C)(CN1CCN(c2cccc(Cl)c2)CC1)NS(=O)(=O)c1ccccc1"
reported_metric = "inhibition at 20 µM"
result = "25 to 50%"

[[record]]
compound = "NC(=O)CCN1CCOC(c2nc(-c3ccccc3)cs2)C1 (stereo not shown)"
reported_metric = "inhibition at 20 µM"
result = "1 to 25%"

[[record]]
compound = "CC(C)(CNc1ccc(S(=O)(=O)N(Cc2ccccc2)Cc2ccccc2)cn1)N1CCOCC1"
reported_metric = "inhibition at 20 µM"
result = "25 to 50%"

[[record]]
compound = "COc1ccc(CCC(=O)Nc2nc(-c3ccccn3)nc3sccc23)cn1 [drawing 3493]"
reported_metric = "inhibition at 20 µM"
result = "51 to 75%"

[[record]]
compound = "CCOc1ccc(-c2nc(CSc3nc4ccccc4n3CCOC)cs2)cc1OC"
reported_metric = "inhibition at 20 µM"
result = "25 to 50%"

[[record]]
compound = "OCC1(c2ccc(-c3nc(-c4ccccn4)nc(-c4ccc(C5(CO)CC5)cc4)c3Oc3ccccc3)cc2)CC1 [drawing 3532]"
reported_metric = "inhibition at 20 µM"
result = "1 to 25%"

[[record]]
compound = "COc1nc(-c2ccccn2)nc2c(C3CCCC3)csc12 [drawing 3470]"
reported_metric = "inhibition at 20 µM"
result = "51 to 75%"

